target: SARS-CoV-2 spike protein, WA1/2020, borne on lentiviral pseudovirus (SARS-CoV-2, WA01/2020 strain, UniProt P0DTC2 14-1273)
protocolNotes: cell-based or functional assay
property: Pseudo Neut, WA1/2020 IC50 (pM)
The reply should contain only the number, in pM.

binder | unitName | Pseudo Neut, WA1/2020 IC50 (pM)
antibody 1814 (antibody, V domains shown) VH: QVQLQESGPGLVKPSETLSLTCSVSGGSINYYYWSWIRQTPGQGLEWIGFIYSSGTTNYNPSLKSRVTMSKDTAKKQFSLKLTSVTAADSAVYYCARHSRSCTNGVCQTYYYYALDVWGHGTTVTVSS VL: QSVLTQPPSVSGAPGQRVTISCTGSGSNIGSGYDVHWYQQLPGRAPKLLIYRNRNRPSGVPDRFSGSKSGTSASLAIAGLQSEDEGDYFCQSYDGRLGESAVFGGGTRLTVL | pM | 171
antibody 1231 (antibody, V domains shown) VH: QVQLVQSGSELKKPGASVKVSCTGYGYTFTSYAMNWVRQAPGQGLEWMGWINTNTGHPAYAQGFTGRFVFSLDSSVSTAYLQISSLKAEDTAVYYCATTIRAGGYFDFWGQGTLVTVSS VL: DIQLTQSPSFLSASVGDRVTITCRASQGISSYLAWFQQKPGKAPKLLIYVVSILQSGVPSRFSGSGSGTEFTLTISSLQPEDFATYYCQQLNSYPYTFGQGTKLEIK | pM | 95000

Proceed to the following item.
What Pseudo Neut, WA1/2020 IC50 (pM) value was documented for this binder, antibody 2794 (antibody, V domains shown) VH: QVQLVQSGAEVKKPGSSLKVSCKASGGTFNNFAISWVRQAPGQGPEWMGRINPILSAAKYAQKFQGRLTITADKSTTTAYMELSSLRSEDTAVYYCAPTGTGESWWFDPWGQGTLVTVSS VL: QSVLTQPPSASGTPGQRVTISCSGSSSNIGTNYVYWYQQLPGTAPKVLIYGNNQRPSGVPDRFSGSKSGSSASLAISGLRSEDEADYYCAAWDDSLSGPVFGGGTKLTVL ? 232
